procedure summary: small-molecule binders of probe aLefty1, primary screen, biochemical, small-molecule microarray, 635/667 nm fluorescence (AID 1153);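 note: score merges spot fluorescence with signal-to-noise ratio from the scanned slide images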
cond: higher = more signal
result type: composite z-score
Format: numeric value only, no unit, no commentary.

**Q:** Find the recorded composite z-score belonging to "Cc1ccc(N2C(=O)c3ccccc3[C@](C)(C(=O)NCC(F)(F)F)[C@@H]2c2ccc(CO)cc2)nc1" and report it.
**A:** -0.147

**Q:** Find the recorded composite z-score belonging to "O=C(O)[C@H]1C[C@H]2C(=O)N[C@@H](Cc3ccccc3)C(=O)N2[C@H]1c1ccc(O)cc1" and report it.
**A:** -0.0162

**Q:** Find the recorded composite z-score belonging to "COCCCNC(=O)[C@@]1(CCS(=O)(=O)c2ccccc2)N=C(c2ccc(OCCCO)cc2)O[C@H]1c1ccccc1CN=[N+]=[N-]" and report it.
**A:** 1.03

**Q:** Find the recorded composite z-score belonging to "COc1c(C)cc(-c2cc3c(c(CCc4ccccc4)n2)[Si](C(C)C)(C(C)C)OC3)cc1C" and report it.
**A:** 0.112
